experiment: potentiometric titration; conditions: not told
Listed below: log partition n-octanol / water (0.15 M KCl) values for each entry.
assayEndpoint: log partition n-octanol / water (0.15 M KCl) (log10 concentration ratio)

>>> obsvalue("CN(C)S(=O)(=O)NC1(CCc2ccccc2)CS(=O)(=O)C1 [Compound 26]")
1.83
>>> obsvalue("CS(=O)(=O)Nc1cc(-c2ccccc2)on1 [Compound 27]")
0.58
>>> obsvalue("CN(C)S(=O)(=O)Nc1cn(-c2ccccc2)nn1 [Compound 32]")
1.72
>>> obsvalue("CS(=O)(=O)NC1(CCc2ccccc2)CS(=O)C1 (stereo not shown)")
0.88
